Origin of values: the supplement of paper PMC10732440

I'd appreciate it if you could supply progeny production values for the items below.
- Tested on: Caenorhabditis elegans N2 infected with Nematocida parisii ERTm1
- assay: progeny production relative to DMSO uninfected control; higher = more progeny despite microsporidia infection (inhibition of infection with low host toxicity)
- condition-notes: infection time 6 days; 100 µM
Give bare numbers, in %.

- compound: "Cc1ncc([N+](=O)[O-])n1CC(O)CN1CCOCC1 (stereo unspecified)"
  result: 12.3

Count: 4. Required value per item: progeny production.
1. CC1=C(/C=C/C(C)=C/C=C/C(C)=C/C(=O)Nc2ccc(O)cc2)C(C)(C)CCC1
2. Cc1nc2ccc(Oc3ccccc3)cc2c2c1CCN2CCc1ccccc1
3. COc1ccc2c(c1OC)C(=O)OC2C1c2c(cc3c(c2OC)OCO3)CCN1C (stereo unspecified)
4. CCc1oc2ccccc2c1C(=O)c1ccc(O)cc1

Found:
11.6
11.3
14.7
16.8

Count: 8. Required value per item: progeny production.
1. CC(=O)NC[C@H]1CN(c2ccc(N3CCSCC3)c(F)c2)C(=O)O1
2. O=C(NC(=O)N1CCCc2ccccc21)c1cccc(Cl)c1
3. [N-]=[N+]=N[C@H]1C[C@H](n2ccc(=O)[nH]c2=O)O[C@@H]1CO
4. CCCCCCCCC(CP(=O)(O)C(C)N)C(=O)O (stereo unspecified)
5. CS(=O)(=O)c1ccc(Oc2ccc(Cl)cc2)cc1
6. NC[C@H]1O[C@H](O[C@H]2[C@H](O)[C@@H](O[C@H]3O[C@H](CO)[C@@H](O)[C@H](N)[C@H]3O)[C@H](N)C[C@@H]2N)[C@H](N)C[C@@H]1O
7. CC1(C)Cc2c(C#N)c(SCCc3ccccc3)nc(N3CCOCC3)c2CO1
8. C=C[C@]1(C)C[C@@H](OC(=O)CS[C@@H]2C[C@H]3CC[C@@H](C2)N3C)[C@]2(C)[C@H](C)CC[C@]3(CCC(=O)[C@H]32)[C@@H](C)[C@@H]1O

Found:
10.4
19.9
11.5
18.6
13.1
11.7
18.8
15.1

Count: 2. Required value per item: progeny production.
1. O=c1oc2ccc(Br)cc2cc1CSc1ncc[nH]1
2. N#Cc1c(F)c(Cl)c(NCc2ccccc2)c(C#N)c1F

Found:
1. 11.1
2. 15

Count: 6. Required value per item: progeny production.
1. O=C(O)c1ccc(-c2ccc(O[C@H]3O[C@H](CO)[C@@H](O)[C@H](O)[C@@H]3O)cc2)cc1
2. Cc1onc(-c2ccccc2)c1-c1ccc(S(N)(=O)=O)cc1
3. Oc1ccc(NCc2ccccc2OCc2ccccc2)cc1
4. CC(=O)N1c2ccccc2NC2=C(C(=O)CC(C)(C)C2)C1c1ccc(OCc2ccccc2)cc1 (stereo unspecified)
5. Cc1cccc(C)c1C(=O)Nc1nc(-c2ccccn2)cc2ccccc12
6. CCCCCCC1c2ccc(O)cc2Oc2cc(O)ccc21

Found:
1: 7.21; 2: 7.71; 3: 8.25; 4: 9.82; 5: 6.64; 6: 29.9

###

I'd appreciate it if you could supply progeny production values for the items below.
- System: Caenorhabditis elegans N2 infected with Nematocida parisii ERTm1
- assay: progeny production relative to DMSO uninfected control; higher = more progeny despite microsporidia infection (inhibition of infection with low host toxicity)
- condition-notes: infection time 6 days; 40 µM

Reference set (3 entries):
- compound: "Nc1nc(-c2ccccc2)nc2c1ncn2[C@@H]1O[C@H](COS(=O)(=O)NC(=O)c2ccccc2O)[C@@H](O)[C@H]1O"
  progeny production: "6.94%"
- compound: "CCCCSc1nc(N)c2[nH]c(=O)c(=O)n(Cc3ccccc3)c2n1"
  progeny production: "4.52%"
- compound: "COCCn1cnc2c(O)nc(Nc3ccccc3)nc21"
  progeny production: "8.43%"

Count: 2. Required value per item: progeny production.
1. COc1ccc(SCC(=O)N2c3ccccc3Sc3ccccc32)cc1
2. Nc1cc(-c2nc3ccccc3[nH]2)n[nH]c1=O

Found:
5.84%
6.4%

Count: 8. Required value per item: progeny production.
1. CCCC(=O)OCCc1ccccc1
2. OC(Cn1cncn1)(Cn1cncn1)c1ccc(F)cc1F
3. COc1ccc2c(c1)cc(CNC(=O)c1cc3ccccc3o1)n2CC(=O)O
4. CC(C)/N=c1\cc2n(-c3ccc(Cl)cc3)c3ccccc3nc-2cc1Nc1ccc(Cl)cc1
5. Clc1cc(Cl)c2c(c1)CCc1ccccc1C2n1ccnc1 (stereo not given)
6. Cc1cc(CCCOc2c(C)cc(-c3noc(C(F)(F)F)n3)cc2C)on1
7. NC(=O)c1[nH]c2ccc(S(N)(=O)=O)cc2c1-c1ccccc1
8. Nc1nc(O)c2ncn([C@@H]3O[C@H](CO)[C@@H](O)[C@H]3F)c2n1

Found:
5.19%
3.82%
3.92%
5.08%
7.16%
1.93%
4.85%
4.36%

###

- Tested on: Caenorhabditis elegans N2 infected with Nematocida parisii ERTm1
- assay: progeny production relative to DMSO uninfected control; higher = more progeny despite microsporidia infection (inhibition of infection with low host toxicity)
- condition-notes: infection time 6 days; 40 µM
metric-name: progeny production (%)
Give bare numbers, in %.

Reference set (8 entries):
- molecule: "CCCCCCC1c2ccc(O)cc2Oc2cc(O)ccc21"
  progeny production, %: 4.98
- molecule: "CC(=O)Oc1ccccc1C(=O)Nc1ncc([N+](=O)[O-])s1"
  progeny production, %: 3.11
- molecule: "CC(C)(C)c1cccc(-c2nc3cc(C(=N)N)ccc3[nH]2)c1O"
  progeny production, %: 2.13
- molecule: "NC(=O)c1cnc2ccc(S(=O)(=O)c3ccccc3)cc2c1Nc1ccc(O)cc1"
  progeny production, %: 6.94
- molecule: "O=P(O)(O)C(CCCc1cccc(Oc2ccccc2)c1)S(=O)(=O)O (stereo not drawn)"
  progeny production, %: 5.45
- molecule: "Nc1nc(O)c(Br)c(-c2cccc(Cl)c2)n1"
  progeny production, %: 4.12
- molecule: "Clc1cc2nc(C3CCNCC3)n(Cc3ccc(CNCCc4c[nH]cn4)cc3)c2cc1Cl"
  progeny production, %: 7.61
- molecule: "COc1ccc(COc2cc3oc(=O)c4cc(C(C)O)ccc4c3cc2OC)cc1 (stereo not drawn)"
  progeny production, %: 5.78

Count: 7. Required value per item: progeny production.
1. Fc1cccc(Cl)c1C1CC(c2ccc(Cl)cc2)Nc2nnnn21 (stereo not drawn)
2. NC(=O)c1ccccc1NC(=O)c1ccc(C(=O)Nc2ccccc2C(N)=O)cc1
3. CCCC1(C2CC2)c2cc(Cl)ccc2NC(=O)N1C (stereo not drawn)
4. Cc1ccc(N2CCC(CCOc3ccc(S(C)(=O)=O)cc3)CC2)nn1
5. CC(C)c1cc2c(cc1S(=O)(=O)O)[C@@]1(C)CCC[C@@](C)(C(=O)O)[C@@H]1CC2
6. Oc1c(C(Nc2ccccn2)c2ccccc2)ccc2cccnc12 (stereo not drawn)
7. CNCC(=O)OCc1cccnc1N(C)C(=O)OC(C)[n+]1cnn(C[C@](O)(c2cc(F)ccc2F)[C@@H](C)c2nc(-c3ccc(C#N)cc3)cs2)c1 (stereo partly drawn)

Found:
1. 4.5
2. 8.47
3. 2.32
4. 4.13
5. 8.72
6. 8.66
7. 7.13

Count: 8. Required value per item: progeny production.
1. O=C(/C(=C/c1ccc(Cl)cc1Cl)n1ccnc1)c1ccc(Cl)cc1
2. O=C(O)CCNC(=O)c1ccccc1
3. CCc1cc(O)c(Oc2cccnc2N)cc1F
4. Clc1ccc(Cn2c(CN3CCCC3)nc3ccccc32)cc1
5. O=c1ccc2ncc(=O)n3c2n1CC3CN1CCC(NCc2cc3c(cn2)OCCC3)CC1 (stereo not drawn)
6. Cc1onc(-c2ccccc2)c1-c1ccc(S(N)(=O)=O)cc1
7. N[C@H](CCC(=O)N[C@@H](Cc1c[nH]c2ccccc12)C(=O)O)C(=O)O
8. Cc1[nH]c2ccccc2c1CCNCc1ccc(/C=C/C(=O)NO)cc1

Found:
[24.5, 13, 6.17, 3.41, 2.13, 3.75, 6.53, 6.83]

###

- System: Caenorhabditis elegans N2 infected with Nematocida parisii ERTm1
- assay: progeny production relative to DMSO uninfected control; higher = more progeny despite microsporidia infection (inhibition of infection with low host toxicity)
- condition-notes: infection time 6 days; 100 µM
metric-name: progeny production (%)
Answers are plain numbers, in %.

Count: 5. Required value per item: progeny production.
1. Cc1ccc(Oc2ccccc2-c2csc(N=C3NCCCN3)n2)c(C)c1
2. Cc1cc(C2CCCCC2)n(O)c(=O)c1
3. COc1ccc(C[C@@H](C)[C@@H](C)Cc2ccc(OC)c(OC)c2)cc1OC
4. Cc1[nH]c2ccccc2c1CC(=O)N[C@@H](Cc1ccccc1)C(=O)N(C)c1ccccc1
5. COCCn1cnc2c(O)nc(Nc3ccccc3)nc21

Found:
1: 14.8; 2: 33; 3: 16; 4: 17.6; 5: 17.6

Count: 4. Required value per item: progeny production.
1. O=C(NC(=O)N1CCCc2ccccc21)c1ccc(Cl)cc1Cl
2. COc1ccc(NC(=O)CC2Sc3ncnn3C2=O)cc1 (configuration not stated)
3. CCCc1ccc(-c2cc3cn([C@H]4C[C@H](O)[C@@H](CO)O4)c(=O)nc3o2)cc1
4. COc1cc(NC(=O)CN2C(=O)NC(c3ccccc3)(c3ccccc3)C2=O)cc(OC)c1

Found:
19.2
14.8
11
15.8

Count: 2. Required value per item: progeny production.
1. COc1ccc2sc3c(c2c1)NC(C)CNC3=O (configuration not stated)
2. C[C@H](c1cccc2ccccc12)N(C)Cc1ccccc1

Found:
1. 29.9
2. 12.4

Count: 8. Required value per item: progeny production.
1. O=c1[nH]c(=O)n(Cc2cccc(Oc3ccccc3)c2)cc1Nc1ccccc1
2. Nc1nc(O)c(Br)c(-c2cccc(Cl)c2)n1
3. CCc1nc(N)nc(N)c1C#CC(C)c1cc(OC)cc(-c2ccncc2)c1 (configuration not stated)
4. COc1ccc2c(c1)cc(CNC(=O)c1cc3ccccc3o1)n2CC(=O)O
5. CO[C@@]1(NC(=O)Cc2cccs2)C(=O)N2C(C(=O)O)=C(COC(N)=O)CS[C@@H]21
6. NC(=O)c1nccn([C@@H]2O[C@H](CO)[C@@H](O)[C@H]2O)c1=O
7. Cn1cc(NC(=O)c2cc(NC(=O)c3ccc(/C=C/c4cnc5ccccc5c4)cc3)cn2C)cc1C(=O)NCCN1CCOCC1
8. O=C(NC1CCCc2c1[nH]c1ccc(Cl)cc21)c1ccccn1 (configuration not stated)

Found:
1. 9.39
2. 12.1
3. 9.94
4. 17.7
5. 7.7
6. 10.3
7. 15.5
8. 7.35
